Entry source: patent US20240124454A1

Can you tell me IC50 for the items I'm about to list?
# Assayed system: CYP2D6 (Homo sapiens (Human), UniProt P10635)
# Sequence (P10635 whole entry): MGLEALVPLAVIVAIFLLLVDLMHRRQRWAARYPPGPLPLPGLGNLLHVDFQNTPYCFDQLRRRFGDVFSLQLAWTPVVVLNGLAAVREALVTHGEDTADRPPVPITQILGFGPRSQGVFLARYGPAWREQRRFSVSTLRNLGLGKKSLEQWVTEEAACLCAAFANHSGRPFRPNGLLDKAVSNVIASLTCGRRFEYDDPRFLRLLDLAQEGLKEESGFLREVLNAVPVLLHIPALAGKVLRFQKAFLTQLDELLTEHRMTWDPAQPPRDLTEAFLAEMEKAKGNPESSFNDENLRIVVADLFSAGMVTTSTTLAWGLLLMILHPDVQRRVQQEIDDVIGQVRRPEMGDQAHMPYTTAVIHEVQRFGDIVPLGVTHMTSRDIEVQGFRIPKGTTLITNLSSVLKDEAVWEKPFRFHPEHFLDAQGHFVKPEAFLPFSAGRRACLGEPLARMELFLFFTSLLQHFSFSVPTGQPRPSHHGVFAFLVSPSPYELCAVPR
# Assay explanation: CYP2D6 inhibition in human liver microsomes (dextromethorphan substrate)
# Type: in vitro ADME
# Experimental context: human liver microsome

Query :: I would be grateful if you could share the reported IC50 for Cn1cnc2c(=O)n(-c3cccnc3C3CC3)c3cc(Cl)ccc3c21 (single isomer, unassigned) [Compound 49-P2] .
Result :: > 30 µM

Query :: Check Cc1ncccc1-n1c(=O)c2ncn(C)c2c2ccc(C(F)(F)F)cc21 [Compound 45] too.
Result :: > 30 µM

Query :: Entry Cn1cnc2c(=O)n(-c3cccc(F)c3Cl)c3cc(Cl)ccc3c21 [Compound 39] please
Result :: > 30 µM

Query :: For Cn1cnc2c(=O)n(-c3cccnc3C(F)(F)F)c3nc(C(F)(F)F)ccc3c21 (single isomer, unassigned) [Compound 41-P2] then?
Result :: 18.2 µM

---

# Assayed system: MAT2A (Homo sapiens (Human), UniProt P31153)
# Sequence (P31153 whole entry): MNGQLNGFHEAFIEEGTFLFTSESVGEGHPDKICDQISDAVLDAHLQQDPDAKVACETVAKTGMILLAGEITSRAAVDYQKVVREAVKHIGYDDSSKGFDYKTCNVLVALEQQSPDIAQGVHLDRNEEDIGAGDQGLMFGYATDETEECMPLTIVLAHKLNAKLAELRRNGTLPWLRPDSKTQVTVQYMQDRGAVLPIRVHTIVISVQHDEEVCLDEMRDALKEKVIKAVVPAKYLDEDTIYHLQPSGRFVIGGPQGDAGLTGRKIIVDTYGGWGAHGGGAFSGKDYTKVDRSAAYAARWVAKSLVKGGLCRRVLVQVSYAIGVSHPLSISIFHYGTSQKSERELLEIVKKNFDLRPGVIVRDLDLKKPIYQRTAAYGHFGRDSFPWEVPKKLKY
# Assay explanation: MAT2A biochemical test (inorganic phosphate colorimetric, PiColorLock)
# Experimental context: numeric values; read-out: MAT2A inhibitory Activity IC50
pIC50: −log10 of the molar value.
Tick condition met if pIC50 is 7 or greater. Tick condition not met if pIC50 is less than 7.

Query :: Threshold query (pIC50 >= 7) on Cn1cnc2c(=O)n(-c3ccccc3C(F)(F)F)c3nc(C(F)(F)F)ccc3c21 (single isomer, unassigned) [Compound 57-P2]
Result :: condition met

Query :: // repeat for Cn1cnc2c(=O)n(-c3cccc(F)c3Cl)c3cc(C(F)(F)F)ccc3c21 and report
Result :: condition met

Query :: Now consider O=c1c2ncoc2c2ccc(C(F)(F)F)nc2n1-c1cccnc1C1CC1 (single isomer, unassigned) [Compound 81-P2] .
Result :: condition met

Query :: Would you kindly repeat that for Cn1cnc2c(=O)n(-c3ccc(OC(F)F)cn3)c3nc(C(F)(F)F)ccc3c21 ?
Result :: condition not met

Query :: Now the molecule Cn1cnc2c(=O)n(-c3cccnc3C3CC3)c3nc(C(F)(F)F)ccc3c21 (atropisomer, axis not shown) [Compound 42]
Result :: condition met

---

# Assay explanation: Metabolic stability in human liver microsomes
# Type: in vitro ADME
# Experimental context: pH 7.4, 1 μM compound, 0.5 mg/mL microsome, NADPH, read-out: Human liver microsome stability t1/2
Measurement name: half-life at 1 μM

Query :: Find the recorded half-life at 1 μM belonging to Cc1ncccc1-n1c(=O)c2ncoc2c2ccc(C(F)(F)F)nc21 and report it.
Result :: > 5 h

Query :: Similarly, Cn1cnc2c(=O)n(-c3cccc(F)c3Cl)c3nc(C(F)(F)F)ccc3c21 (single isomer, unassigned) [Compound 25-P2] ?
Result :: > 5 h

Query :: Check Cn1cnc2c(=O)n(-c3cccnc3C(F)(F)F)c3nc(C(F)(F)F)ccc3c21 (single isomer, unassigned) [Compound 41-P2] too.
Result :: > 5 h

Query :: Try this molecule next: O=c1c2ncoc2c2ccc(C(F)(F)F)nc2n1-c1cccnc1C1CC1 (single isomer, unassigned) [Compound 81-P2]
Result :: > 5 h

Query :: Now consider Cc1ncccc1-n1c(=O)c2ncn(C)c2c2ccc(C(F)(F)F)cc21 .
Result :: > 5 h

Query :: And the next one, Cn1cnc2c(=O)n(-c3cccnc3C3CC3)c3nc(C(F)(F)F)ccc3c21 (single isomer, unassigned) [Compound 42-P2] ?
Result :: 4.26 h

Query :: Next entry: Cc1ncccc1-n1c(=O)c2ncn(C)c2c2ccc(C(F)(F)F)nc21 (atropisomer, axis not shown)
Result :: > 5 h

Query :: Again, but for Cn1cnc2c(=O)n(-c3cccnc3C3CC3)c3cc(C(F)(F)F)ccc3c21 (single isomer, unassigned) [Compound 48-P2]
Result :: > 5 h

Query :: # iterate: Cn1cnc2c(=O)n(-c3cccnc3C3CC3)c3cc(Cl)ccc3c21 (single isomer, unassigned) [Compound 49-P2]
Result :: 3.78 h

Query :: Note, next up: Cn1cnc2c(=O)n(-c3cccc(F)c3Cl)c3nc(C(F)(F)F)ccc3c21 (atropisomer, axis not shown) [Compound 25]
Result :: > 5 h

---

# Assayed system: MAT2A (Homo sapiens (Human))
# Assay explanation: MAT2A biochemical test (inorganic phosphate colorimetric, PiColorLock)
# Experimental context: class symbols; read-out: MAT2A inhibitory Activity IC50
Measurement name: IC50

Query :: # get_value(readout='IC50', item= O=c1c2ocnc2c2ccc(C(F)(F)F)nc2n1-c1ccc(OC(F)F)cc1 )
Result :: 100 to 500 nM

Query :: What about this molecule? Cn1cnc2c(=O)n(-c3ccc(Cl)cc3)c3nc(C(F)(F)F)ccc3c21
Result :: < 100 nM

Query :: Please answer likewise for O=c1c2nc[nH]c2c2ccc(C(F)(F)F)nc2n1-c1ccccc1Cl
Result :: < 100 nM

Query :: Entry Cn1nccc1-n1c(=O)c2ncn(C)c2c2ccc(C(F)(F)F)nc21 please
Result :: 100 to 500 nM

Query :: Continue with O=c1[nH]c2c(=O)n(-c3ccccc3Cl)c3nc(C(F)(F)F)ccc3c2[nH]1
Result :: < 100 nM

Query :: Please give the result for Cn1cnc2c(=O)n(-c3cccnc3C(F)(F)F)c3cc(C(F)(F)F)ccc3c21 too.
Result :: < 100 nM

Query :: Now this one: CCOc1ccc2c3c(ncn3C)c(=O)n(-c3ccc(OC(F)F)cc3)c2n1
Result :: < 100 nM

Query :: Cn1cnc2c(=O)n(-c3cccc(F)c3Cl)c3nc(C(F)(F)F)ncc3c21 , same question.
Result :: < 100 nM

---

# Assay explanation: Pharmacokinetics in Balb/c Nude mice
# Type: in vivo
# Experimental context: female, Balb/c Nude, mouse, plasma; PO 3 mg/kg, vehicle 10% VE TPGS aqueous solution, vs IV 1 mg/kg
Measurement name: bioavailability

Query :: # query: bioavailability of entry Cn1cnc2c(=O)n(-c3cccc(F)c3Cl)c3nc(C(F)(F)F)ccc3c21 (single isomer, unassigned) [Compound 25-P2]
Result :: ~100%

---

# System: HCT116 MTAP^−/− cells
# Assay explanation: Determination of intracellular SAM level by LC-MS/MS
# Type: cell-based
# Experimental context: Homo sapiens, HCT-116, 6 h, read-out: SAM production inhibitory activity IC50
Measurement name: pIC50
Convention used: pIC50 is expressed as -log10 of the molar concentration.

Query :: Given the entry Cc1ncccc1-n1c(=O)c2ncn(C)c2c2ccc(C(F)(F)F)nc21 (single isomer, unassigned) [Compound 20-P1] , report its measured pIC50.
Result :: 8.80

Query :: Again, but for Cc1cccc(-n2c(=O)c3ncn(C)c3c3ccc(C(F)(F)F)nc32)c1Cl [Compound 36]
Result :: 8.25

Query :: And then Cn1cnc2c(=O)n(-c3cccnc3C(F)(F)F)c3nc(C(F)(F)F)ccc3c21 (single isomer, unassigned) [Compound 41-P2] , what is it?
Result :: 8.34

---

# Assayed system: MAT2A (Homo sapiens (Human))
# Assay explanation: MAT2A biochemical test (inorganic phosphate colorimetric, PiColorLock)
# Experimental context: numeric values; read-out: MAT2A inhibitory Activity IC50
Entries whose IC50 is below 0.05 µM take condition met; entries at or above 0.05 µM take condition not met.

Query :: Quick check: does Cn1cnc2c(=O)n(-c3cncnc3)c3nc(C(F)(F)F)ccc3c21 have IC50 under 0.05 µM?
Result :: condition not met

Query :: Quick one: Cn1cnc2c(=O)n(-c3cccc(Cl)c3Cl)c3nc(C(F)(F)F)ccc3c21
Result :: condition met

Query :: And then Cn1cnc2c(=O)n(-c3ccc(OC(F)F)cc3)c3nc(C(F)(F)F)ccc3c21 , what is it?
Result :: condition met

Query :: Cc1ccccc1-n1c(=O)c2ncn(C)c2c2ccc(C(F)(F)F)nc21 ?
Result :: condition not met

Query :: Try this compound too: Cn1cnc2c(=O)n(-c3ccc(OC(F)F)c(F)c3)c3nc(C(F)(F)F)ccc3c21
Result :: condition not met

Query :: What do you have for CCc1ncccc1-n1c(=O)c2ncn(C)c2c2ccc(C(F)(F)F)nc21 (single isomer, unassigned) [Compound 67-P2] ?
Result :: condition met

Query :: Moving on to CC(C)c1ccccc1-n1c(=O)c2ncn(C)c2c2ccc(C(F)(F)F)nc21
Result :: condition not met

Query :: Try this compound next: O=c1c2ocnc2c2ccc(C(F)(F)F)nc2n1-c1ccccc1Cl
Result :: condition not met

Query :: Same question, CCOc1ccc2c3c(ncn3C)c(=O)n(-c3ccc(OC(F)F)cc3)c2n1 this time
Result :: condition met

Query :: Entry Cc1ncccc1-n1c(=O)c2ncn(C)c2c2ccc(C(F)(F)F)nc21 (atropisomer, axis not shown) [Compound 20] please
Result :: condition not met

Query :: Now the compound Cc1ncccc1-n1c(=O)c2ncoc2c2ccc(Cl)cc21 (single isomer, unassigned) [Compound 83-P2]
Result :: condition met

Query :: Record: Cn1cnc2c(=O)n(-c3cccc(F)c3Cl)c3nc(C(F)(F)F)ccc3c21 (single isomer, unassigned) [Compound 25-P2]
Result :: condition met

Query :: Here is the next compound: CN(C)CCn1cnc2c(=O)n(-c3ccccc3Cl)c3nc(C(F)(F)F)ccc3c21
Result :: condition not met
